Test system: DMS 114 small cell lung
Experiment: NCI tumour cell line growth inhibition, 48 h
Give TGI for every item shown.

Documented TGI of COc1ccc(C(=O)C(C(=O)CCC(=O)Nc2cccc(C(F)(F)F)c2)c2ccccc2)cc1 (stereo not given) : > 100 µM

Documented TGI of "CC(=O)OCCOCBr" : > 100 µM

Documented TGI of "COc1ccc(/C=C/C(=O)c2sc(-n3nc(-c4ccccc4)cc3-c3ccccc3)nc2C)cc1OC" : > 100 µM

Documented TGI of COc1cc(CCCOC2OC(COC3OCC(O)C(O)C3O)C(O)C(O)C2O)cc2cc(-c3ccc4c(c3)OCO4)oc12 (stereo not given) : > 175 µM

Documented TGI of C=C(COC(C)=O)CC(/C=C(\C)CCC=C(C)C)OC(C)=O (stereo not given) : > 100 µM
